- PROCEDURE DETAILS: Cytotoxicity screen, growth inhibition of HC-04 cells
- MEASUREMENT CONTEXT: human
pIC50: −log10 of the molar value.
ENDPOINT: pIC50

In the examples that follow, each entry is paired with its recorded pIC50.
O=C(Nc1cccnc1)c1ccc(CNS(=O)(=O)c2ccc(N3CCOCC3)cc2)cc1 [Compound 5] : < 4.30
CN1CCN(c2ccc(S(=O)(=O)NCc3ccc(-c4nc(-c5cccnc5)no4)cc3)cc2)CC1 [Compound 19] : < 4.30

Quick one: give measured pIC50 for CN1CCN(c2ccc(S(=O)(=O)NCc3ccc(C(=O)Nc4cccnc4)cc3)cc2)CC1 [Compound 2]
< 4.30
